biological target: T1, apical domain of human CD71 (human, UniProt P02786 189-383, limits assumed); experiment: primary ELISA, RLU over HSA
T1 construct: domain: apical domain; Screen 4 panned on human apical domains, the ELISA text says only 'apical domain'
T1 sequence (P02786 189-383 limits assumed): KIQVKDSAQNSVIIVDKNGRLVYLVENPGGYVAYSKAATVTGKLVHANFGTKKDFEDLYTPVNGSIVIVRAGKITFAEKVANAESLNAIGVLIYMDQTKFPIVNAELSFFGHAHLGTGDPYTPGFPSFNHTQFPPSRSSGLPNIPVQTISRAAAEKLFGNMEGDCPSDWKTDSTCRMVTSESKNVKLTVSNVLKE
measured-attribute: Apical domain:HSA

P: CD71-binding FN3 domain of SEQ ID NO: 483 (designed binder) MLPAPKNLVVSRVTEDSARLSWTAPDAAFDSFFIGYLEPQPPGEAITLVVPGSERSYDLTGLKPGTEYNVTIQGVKGGFPSDPLVASFTT
Q: CD71-binding FN3 domain of SEQ ID NO: 510 (designed binder) MLPAPKNLVVSRVTEDSARLSWTAPDAAFDSFFIAYGESPESGEAIVLTVPGSERSYDLTGLKPGTEYLVWIAGVKGGYYSDPLSAIFTT
Query: Hi there! Just curious which has the higher Apical domain:HSA between P and Q . Reply with the label of the item you choose.
Result: Q
